Provenance of the data: ChEMBL document CHEMBL1152465

The next entries give measured IC50 for Human immunodeficiency virus type 1 reverse transcriptase (Human immunodeficiency virus 1).
Answer format: numeric, nM implied, no suffix.

Solved cases (5 shown):
given smiles: Cc1cc(C)cc(Oc2c(C(C)C)c(=O)[nH]c(=O)n2CCC2CCCC2)c1
metric: IC50
val: 234
--
given smiles: Cc1cc(C)cc(Sc2c(C(C)C)c(=O)[nH]c(=O)n2CCC2CC=CC2)c1
metric: IC50
val: 254
--
given smiles: Cc1cc(C)cc(C(=O)c2c(C(C)C)c(=O)[nH]c(=O)n2CC2=CCCC2)c1
metric: IC50
val: 20
--
given smiles: Cc1cc(C)cc(Oc2c(C(C)C)c(=O)[nH]c(=O)n2Cc2ccccc2)c1
metric: IC50
val: 114
--
given smiles: CCc1c(Oc2cc(C)cc(C)c2)n(CC2CC2)c(=O)[nH]c1=O
metric: IC50
val: 16

Response field IC50 (Human immunodeficiency virus type 1 reverse transcriptase (Human immunodeficiency virus 1)) for item CCc1c(Oc2cc(C)cc(C)c2)n(CC2CCCCC2)c(=O)[nH]c1=O : 132

Response field IC50 (Human immunodeficiency virus type 1 reverse transcriptase (Human immunodeficiency virus 1)) for item CCc1c(Oc2ccccc2)n(CC2CC=CC2)c(=O)[nH]c1=O : 2620

Response field IC50 (Human immunodeficiency virus type 1 reverse transcriptase (Human immunodeficiency virus 1)) for item CCc1c(C(=O)c2cc(C)cc(C)c2)n(CCC2=CCCC2)c(=O)[nH]c1=O : 2000

Response field IC50 (Human immunodeficiency virus type 1 reverse transcriptase (Human immunodeficiency virus 1)) for item Cc1cc(C)cc(C(=O)c2c(C(C)C)c(=O)[nH]c(=O)n2CC2CCCC2)c1 : 147

Response field IC50 (Human immunodeficiency virus type 1 reverse transcriptase (Human immunodeficiency virus 1)) for item Cc1cc(C)cc(Sc2c(C(C)C)c(=O)[nH]c(=O)n2Cc2ccccc2)c1 : 137
